experiment: Cytotoxicity against LPS-stimulated mouse RAW264.7 cells assessed as cell viability at 10 uM after 24 hrs by MTT assay (reference value: 100%); assay type: cell-based; details: LPS-stimulated RAW264.7 cells, read-out: Activity
readout name: viability at 24 h, 10 µM (%)
Write it as a number; the unit % goes unstated.

Return viability at 24 h, 10 µM for the following compound: `C[C@@H]1[C@H]2[C@H]3C[C@H](O)[C@@H]4[C@@]5(C)CC[C@H](O[C@H]6O[C@H](CO[C@H]7O[C@H](CO[C@H]8O[C@H](CO[C@H]9O[C@H](CO)[C@@H](O)[C@H](O)[C@H]9O)[C@@H](O)[C@H](O)[C@H]8O)[C@@H](O)[C@H](O)[C@H]7O)[C@@H](O)[C@H](O)[C@H]6O)C(C)(C)[C@@H]5CC[C@@]4(C)[C@]3(C)CC[C@@]2(C)CC[C@H]1C` 111

* * *

So I've got a bunch of molecules here, and I need their viability at 24 h, 120 µM values.
assay: Cytotoxicity against LPS-stimulated mouse RAW264.7 cells assessed as cell viability at 120 uM after 24 hrs by MTT assay (reference value: 100%); format: cell-based; details: LPS-stimulated RAW264.7 cells, read-out: Activity
The response must be a number in % with no trailing unit.

Assign viability at 24 h, 120 µM to the following record: `CC(C)=CCC[C@@H](C)[C@H]1CC[C@@]2(C)[C@@H]3CC=C4C(C)(C)[C@@H](O[C@@H]5O[C@H](CO[C@@H]6O[C@H](CO[C@@H]7O[C@H](CO)[C@@H](O)[C@H](O)[C@H]7O)[C@@H](O)[C@H](O)[C@H]6O)[C@@H](O)[C@H](O)[C@H]5O)CC[C@]4(C)[C@H]3CC[C@]12C` 155

Please indicate viability at 24 h, 120 µM recorded for `C[C@@H]1C[C@@H](O)[C@]2(C)CC[C@]3(C)[C@H](CC[C@@H]4[C@@]5(C)CC[C@H](O[C@@H]6O[C@H](CO)[C@@H](O)[C@H](O)[C@H]6O[C@@H]6O[C@H](CO)[C@@H](O)[C@H](O)[C@H]6O)C(C)(C)[C@@H]5CC[C@]43C)[C@@H]2[C@]1(C)O` 73.9

* * *

assay: Cytotoxicity against LPS-stimulated mouse RAW264.7 cells assessed as cell viability at 80 uM after 24 hrs by MTT assay (reference value: 100%); format: cell-based; conditions: LPS-stimulated RAW264.7 cells, read-out: Activity
readout name: viability at 24 h, 80 µM (%)
Give a bare numeral; the unit % is implied.

Give the measured viability at 24 h, 80 µM for `CC(C)=CCC[C@@H](C)[C@H]1CC[C@@]2(C)[C@@H]3CC=C4C(C)(C)[C@@H](O[C@@H]5O[C@H](CO[C@@H]6O[C@H](CO[C@@H]7O[C@H](CO)[C@@H](O)[C@H](O)[C@H]7O)[C@@H](O)[C@H](O)[C@H]6O)[C@@H](O)[C@H](O)[C@H]5O)CC[C@]4(C)[C@H]3CC[C@]12C` 145

Annotate the molecule `C[C@@H]1C[C@@H](O)[C@]2(C)CC[C@]3(C)[C@H](CC[C@@H]4[C@@]5(C)CC[C@H](O[C@@H]6O[C@H](CO)[C@@H](O)[C@H](O)[C@H]6O[C@@H]6O[C@H](CO)[C@@H](O)[C@H](O)[C@H]6O)C(C)(C)[C@@H]5CC[C@]43C)[C@@H]2[C@]1(C)O` with its measured viability at 24 h, 80 µM. 91.7

* * *

experiment: Cytotoxicity against LPS-stimulated mouse RAW264.7 cells assessed as cell viability at 20 uM after 24 hrs by MTT assay (reference value: 100%); assay type: cell-based; details: LPS-stimulated RAW264.7 cells, read-out: Activity
readout name: viability at 24 h, 20 µM
Quick note: unit goes after the number.

Give reported viability at 24 h, 20 µM value for `C[C@@H]1[C@H]2[C@H]3C[C@H](O)[C@@H]4[C@@]5(C)CC[C@H](O[C@H]6O[C@H](CO[C@H]7O[C@H](CO[C@H]8O[C@H](CO[C@H]9O[C@H](CO)[C@@H](O)[C@H](O)[C@H]9O)[C@@H](O)[C@H](O)[C@H]8O)[C@@H](O)[C@H](O)[C@H]7O)[C@@H](O)[C@H](O)[C@H]6O)C(C)(C)[C@@H]5CC[C@@]4(C)[C@]3(C)CC[C@@]2(C)CC[C@H]1C` 126%

* * *

assay: Cytotoxicity against LPS-stimulated mouse RAW264.7 cells assessed as cell viability at 1.5 uM after 24 hrs by MTT assay (reference value: 100%); format: cell-based; conditions: LPS-stimulated RAW264.7 cells, read-out: Activity
readout name: viability at 24 h, 1.5 µM (%)
Unit % implied. Number only.

Return viability at 24 h, 1.5 µM for the following molecule: `O=c1c(O)c(-c2ccc(O)c(O)c2)oc2cc(O)cc(O)c12` 104

* * *

test: Cytotoxicity against LPS-stimulated mouse RAW264.7 cells assessed as cell viability at 40 uM after 24 hrs by MTT assay (reference value: 100%); type: cell-based; settings: LPS-stimulated RAW264.7 cells, read-out: Activity
readout name: viability at 24 h, 40 µM
Could you give the number and then its unit, please?

Provide viability at 24 h, 40 µM value for the following compound: `CC(C)=CCC[C@@H](C)[C@H]1CC[C@@]2(C)[C@@H]3CC=C4C(C)(C)[C@@H](O[C@@H]5O[C@H](CO[C@@H]6O[C@H](CO[C@@H]7O[C@H](CO)[C@@H](O)[C@H](O)[C@H]7O)[C@@H](O)[C@H](O)[C@H]6O)[C@@H](O)[C@H](O)[C@H]5O)CC[C@]4(C)[C@H]3CC[C@]12C` 121%

Return the recorded viability at 24 h, 40 µM value; entry: `C[C@@H]1C[C@@H](O)[C@]2(C)CC[C@]3(C)[C@H](CC[C@@H]4[C@@]5(C)CC[C@H](O[C@@H]6O[C@H](CO)[C@@H](O)[C@H](O)[C@H]6O[C@@H]6O[C@H](CO)[C@@H](O)[C@H](O)[C@H]6O)C(C)(C)[C@@H]5CC[C@]43C)[C@@H]2[C@]1(C)O` 90.3%

Quote viability at 24 h, 40 µM reported for `C[C@@H]1[C@H]2[C@H]3C[C@H](O)[C@@H]4[C@@]5(C)CC[C@H](O[C@H]6O[C@H](CO[C@H]7O[C@H](CO[C@H]8O[C@H](CO[C@H]9O[C@H](CO)[C@@H](O)[C@H](O)[C@H]9O)[C@@H](O)[C@H](O)[C@H]8O)[C@@H](O)[C@H](O)[C@H]7O)[C@@H](O)[C@H](O)[C@H]6O)C(C)(C)[C@@H]5CC[C@@]4(C)[C@]3(C)CC[C@@]2(C)CC[C@H]1C` please. 98.7%
